experiment: Probe fluorescence ratio response to arachidonic acid relative to ADIFAB2; format: binding; conditions: arachidonic acid; response relative to ADIFAB2
endpoint.name: DR/DR AA
Answers are plain numbers.

# molecule, reported.value
rows = [
    ("73W 72A 74F (protein, listed as Rattus norvegicus, PEPTIDE (1)...(131) wild-type rat intestinal fatty acid binding protein) AFDGTWKVDRNENYEKFMEKMGINVVKRKLGAHDNLKLTITQEGNKFTVKESSNFRNIDVVFELGVDFAYSAWFGTELTGTWTMEGNKLVGKFKRVDNGKELIAVREISGNELIQTYTYEGVEAKRIFKKE", 3.378),
]

For each entry beneath this line, provide reported DR/DR AA.
1. 31T, 72A (protein, listed as Rattus norvegicus, PEPTIDE (1)...(131) wild-type rat intestinal fatty acid binding protein) AFDGTWKVDRNENYEKFMEKMGINVVKRKLTAHDNLKLTITQEGNKFTVKESSNFRNIDVVFELGVDFAYSAADGTELTGTWTMEGNKLVGKFKRVDNGKELIAVREISGNELIQTYTYEGVEAKRIFKKE
2. 14L 38I 72A (protein, listed as Rattus norvegicus, PEPTIDE (1)...(131) wild-type rat intestinal fatty acid binding protein) AFDGTWKVDRNENLEKFMEKMGINVVKRKLGAHDNLKITITQEGNKFTVKESSNFRNIDVVFELGVDFAYSAADGTELTGTWTMEGNKLVGKFKRVDNGKELIAVREISGNELIQTYTYEGVEAKRIFKKE

Resp:
0.143
1.046
